The reader will find IC50 measurements below, all made with CYP2C9 (Homo sapiens, UniProt P11712).
Sequence (P11712 whole entry): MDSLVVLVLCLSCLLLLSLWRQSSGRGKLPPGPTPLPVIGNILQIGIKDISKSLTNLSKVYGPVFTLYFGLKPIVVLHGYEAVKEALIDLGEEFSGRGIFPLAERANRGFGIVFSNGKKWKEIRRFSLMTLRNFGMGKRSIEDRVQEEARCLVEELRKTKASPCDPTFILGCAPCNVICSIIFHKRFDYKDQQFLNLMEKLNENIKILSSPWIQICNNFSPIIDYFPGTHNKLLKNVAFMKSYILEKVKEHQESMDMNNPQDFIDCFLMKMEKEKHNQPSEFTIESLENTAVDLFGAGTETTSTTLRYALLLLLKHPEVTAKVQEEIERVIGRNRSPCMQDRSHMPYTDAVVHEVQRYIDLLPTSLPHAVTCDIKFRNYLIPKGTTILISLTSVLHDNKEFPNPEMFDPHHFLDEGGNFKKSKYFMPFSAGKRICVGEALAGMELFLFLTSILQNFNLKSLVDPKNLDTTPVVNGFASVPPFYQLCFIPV

- compound: "CO[C@H]1CN(C2CCN(C(=O)c3cncn3[C@@H](C)c3ccccc3-c3ccc(F)cc3)CC2)CC[C@@H]1O"
  IC50: "> 10 µM"
- compound: "C[C@H]1CN(C(=O)c2cncn2[C@@H](C)c2ccccc2-c2ccc(F)cc2)CC[C@H]1N1CCNC(=O)C1"
  IC50: "> 10 µM"
- compound: "C[C@@H](c1ccccc1-c1ccc(F)c(F)c1F)n1cncc1C(=O)N1CCC2NCCO[C@@H]2C1 (some centres unmarked)"
  IC50: "> 10 µM"
- compound: "C[C@@H](c1ccccc1-c1ccccc1OC(F)(F)F)n1cncc1C(=O)N1CCC2NCCO[C@@H]2C1 (some centres unmarked)"
  IC50: "> 10 µM"
- compound: "C[C@@H](c1ccccc1-c1ccc(F)cc1)n1cncc1C(=O)N1CCC[C@H]2OCCN[C@@H]2C1"
  IC50: "> 10 µM"
